Values from patent US20250352659A1

Test target: T1, B7H3 (human, UniProt Q5ZPR3 29-534)
T1 sequence (looked up): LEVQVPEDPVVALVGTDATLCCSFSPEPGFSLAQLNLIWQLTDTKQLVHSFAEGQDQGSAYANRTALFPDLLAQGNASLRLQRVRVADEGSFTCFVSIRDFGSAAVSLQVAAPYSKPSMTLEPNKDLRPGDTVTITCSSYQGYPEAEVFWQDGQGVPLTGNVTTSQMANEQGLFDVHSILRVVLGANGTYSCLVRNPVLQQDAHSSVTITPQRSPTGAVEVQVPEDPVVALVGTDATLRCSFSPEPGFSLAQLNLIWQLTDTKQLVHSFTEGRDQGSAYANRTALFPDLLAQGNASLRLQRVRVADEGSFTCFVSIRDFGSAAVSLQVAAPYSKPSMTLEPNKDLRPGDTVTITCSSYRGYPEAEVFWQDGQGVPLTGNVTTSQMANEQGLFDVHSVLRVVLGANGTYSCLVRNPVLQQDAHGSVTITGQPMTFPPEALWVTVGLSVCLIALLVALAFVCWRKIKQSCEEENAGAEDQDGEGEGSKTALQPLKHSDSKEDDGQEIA
Protocol details: cell-based or functional assay
Here, each record is paired with measured EC50 (nM), ADC direct killing, Capan-1 (Low), 3D data.
Recorded endpoint: EC50 (nM), ADC direct killing, Capan-1 (Low), 3D

Binder	Result units	Numeric result
ADC4-11 (antibody, human IgG1, kappa, V domains shown, conjugator-linker-payload on cysteine thiols after TCEP reduction (DAR8), maleimide hydrolysed; residues not numbered; structure given only as a drawing) VH: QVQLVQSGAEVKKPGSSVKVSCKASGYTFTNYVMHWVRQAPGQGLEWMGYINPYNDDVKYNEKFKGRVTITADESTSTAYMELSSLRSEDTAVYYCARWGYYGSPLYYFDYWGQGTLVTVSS VL: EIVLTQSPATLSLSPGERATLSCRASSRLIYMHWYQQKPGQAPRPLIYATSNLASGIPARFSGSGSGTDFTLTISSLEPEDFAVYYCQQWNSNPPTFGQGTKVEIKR	nM	1
ADC4-13 (antibody, human IgG1, kappa, V domains shown, conjugator-linker-payload on cysteine thiols after TCEP reduction (DAR8), maleimide hydrolysed; residues not numbered; structure given only as a drawing) VH: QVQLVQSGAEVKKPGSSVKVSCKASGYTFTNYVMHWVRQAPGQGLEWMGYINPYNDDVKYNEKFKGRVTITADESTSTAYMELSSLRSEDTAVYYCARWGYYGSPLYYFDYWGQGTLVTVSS VL: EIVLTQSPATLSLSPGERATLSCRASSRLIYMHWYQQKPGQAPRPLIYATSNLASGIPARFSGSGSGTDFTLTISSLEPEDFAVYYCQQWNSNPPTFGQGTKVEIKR	nM	0.5
ADC4-B (antibody, human IgG1, kappa, V domains shown, conjugator-linker-payload on cysteine thiols after TCEP reduction (DAR8); residues not numbered; structure given only as a drawing) VH: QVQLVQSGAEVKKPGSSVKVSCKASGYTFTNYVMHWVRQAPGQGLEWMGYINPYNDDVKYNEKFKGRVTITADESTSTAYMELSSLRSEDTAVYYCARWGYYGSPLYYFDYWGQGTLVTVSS VL: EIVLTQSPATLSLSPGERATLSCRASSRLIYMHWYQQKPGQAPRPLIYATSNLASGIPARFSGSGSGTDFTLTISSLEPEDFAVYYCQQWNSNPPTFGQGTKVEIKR	nM	1.1
ADC4-16 (antibody, human IgG1, kappa, V domains shown, conjugator-linker-payload on cysteine thiols after TCEP reduction (DAR8), maleimide hydrolysed; residues not numbered; structure given only as a drawing) VH: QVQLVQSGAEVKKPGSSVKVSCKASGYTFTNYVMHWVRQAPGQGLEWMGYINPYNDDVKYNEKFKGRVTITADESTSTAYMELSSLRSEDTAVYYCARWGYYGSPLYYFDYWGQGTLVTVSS VL: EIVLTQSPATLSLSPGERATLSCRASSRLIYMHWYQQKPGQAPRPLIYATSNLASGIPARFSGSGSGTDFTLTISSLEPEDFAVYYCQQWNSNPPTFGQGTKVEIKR	nM	0.6
ADC4-14 (antibody, human IgG1, kappa, V domains shown, conjugator-linker-payload on cysteine thiols after TCEP reduction (DAR8), maleimide hydrolysed; residues not numbered; structure given only as a drawing) VH: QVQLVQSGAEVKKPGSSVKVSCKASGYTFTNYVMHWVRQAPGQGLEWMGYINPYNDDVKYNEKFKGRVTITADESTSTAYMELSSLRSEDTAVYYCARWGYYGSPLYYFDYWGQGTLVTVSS VL: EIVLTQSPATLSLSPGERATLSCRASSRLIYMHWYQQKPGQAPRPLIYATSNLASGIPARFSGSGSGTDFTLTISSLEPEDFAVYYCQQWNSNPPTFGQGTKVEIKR	nM	0.4
